target: T1, eukaryotic translation initiation factor 4E (eIF4E), full length human (human, UniProt P06730 2-217); experiment: fluorescence-based thermal shift assay (FTS), Sypro Red, 10 µM eIF4E, 100 µM peptide
T1 construct: mature; read as P06730; also called eIF4E protein
T1 sequence (P06730 2-217): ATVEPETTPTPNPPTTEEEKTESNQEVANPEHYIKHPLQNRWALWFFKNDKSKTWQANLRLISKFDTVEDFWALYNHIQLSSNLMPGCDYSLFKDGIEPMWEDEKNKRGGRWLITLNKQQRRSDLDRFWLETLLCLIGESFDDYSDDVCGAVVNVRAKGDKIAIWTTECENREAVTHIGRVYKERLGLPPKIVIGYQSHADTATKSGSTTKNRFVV
Square brackets hold non-standard residues; d marks the D form. Ends that are not written are not given here. Ac5c = NC1(C(=O)O)CCCC1; Aib = CC(C)(N)C(=O)O

Binder | ΔT (°C)
YDREFLLXFQX (position 631 (printed '5') = 1-amino cyclopentanoic acid; position 634 (printed '*') = Cα-Me-L-Phenylalanine; C-terminal amide (-NH2)) [Tr2_me5_3] | 5.8 °C
YDREALL[Ac5c]FQF (not fully specified (C-terminus), 29=625, 30=626, 31=627, 34=633)) [Tr2_ALA_A5C4 (Tr2_AIB3_A5C with F628 replaced with alanine)] | 3.72 °C
YDREFLL[Ac5c]AQF (not fully specified (C-terminus)) [Tr2_ALA_A5C5 (Tr2_AIB3_A5C with F632 replaced with alanine)] | 3.65 °C
Y[Aib]REFLLGFQF (not fully specified (C-terminus)) [Tr2_AIB1 peptide] | 1.32 °C
YDREFLLGF[Aib]F (not fully specified (C-terminus)) [Tr2_AIB4 peptide] | 1.52 °C
YDRAFLL[Ac5c]FQF (not fully specified (C-terminus)) [Tr2_ALA_A5C3 (Tr2_AIB3_A5C with alanine at position 627)] | 4.22 °C

Ref: patent US20130130989A1
